Readings of Increased weight Ratio after 7 days at 65% RH (%) (A) for the listed molecules
Test: Moisture absorption/retention test
Format: physicochemical
Conditions: 65% RH, after 7 days
Give the number; % is assumed, so skip it.

* CCCCCCCC(=O)N[C@H](C(=O)[O-])C(C)C.[Na+] [Example 12, N-octanoyl-L-valine sodium salt] | 25.4
* OCC(O)CO [Comparative Example 3, Glycerol, reference compound] | 48.1
* CCCCCCCC(=O)N[C@@H](C)C(=O)[O-].[Na+] [Example 13, N-octanoyl-L-alanine sodium salt] | 29.6

State the recorded Increased weight Ratio after 7 days at 65% RH (%) (A) for this entry: OC[C@@H](O)[C@@H](O)[C@H](O)[C@@H](O)CO [Comparative Example 4, Sorbitol, reference compound]
4.2
